System: NCI/ADR-RES ovarian
Test: NCI tumour cell line growth inhibition, 48 h
property: TGI

Incoming: Give TGI for the following compound: "CNC(=O)c1cncc(/C=C/c2c(C)cccc2C)c1"
Outgoing: > 25 µM

Incoming: Supply measured TGI of COc1ccc(-c2nc(N)c3ncn(C4OC(CO)C(O)C4O)c3n2)cc1 (stereo not drawn) in your reply.
Outgoing: > 100 µM

Incoming: Could you please provide reported TGI for "CCCCNC(=O)Oc1ccc2c(=O)c3sc4c(=O)c5ccccc5c(=O)c4c3c(=O)c2c1" ? Thanks!
Outgoing: 8.43 µM

Incoming: Provide one value: measured TGI of "O=C(/C=C/c1cccs1)c1cccc(C(=O)/C=C/c2cccs2)n1"
Outgoing: > 100 µM

Incoming: Please supply the value of reported TGI for the item "CSc1nncc2[nH]cnc12"
Outgoing: > 100 µM

Incoming: Output TGI of "O=C1/C(=C/c2cccs2)NC(=S)N1CN1CCOCC1"
Outgoing: > 100 µM

Incoming: Answer with the recorded TGI for the compound listed here: "O=C(N/N=C\c1ccc([N+](=O)[O-])cc1)c1ccccc1Nc1ccccc1C(=O)N/N=C/c1ccc([N+](=O)[O-])cc1"
Outgoing: > 100 µM

Incoming: Quickly give me recorded TGI for "O=c1ccccc(-c2ccc(-c3ccco3)cc2)c1O"
Outgoing: 4.65 µM

Incoming: Return TGI (reported value) for this compound: "O=C(NCCCCNCCCNC(=O)c1cc(-c2ccccc2)nc2ccccc12)c1cc(-c2ccccc2)nc2ccccc12"
Outgoing: 5.09 µM

Incoming: Give the measured TGI for "CCOC(=O)/C=C(\N=P(c1ccccc1)(c1ccccc1)c1ccccc1)C(F)(F)C(F)(F)C(F)(F)C(F)(F)C(F)(F)F"
Outgoing: > 100 µM

Incoming: Give the reported value of TGI for this record: "O=C1CCCCC[C@]12SC[C@H]1CON=C12"
Outgoing: 83.4 µM

Incoming: Supply recorded TGI for "CC(=O)O[C@H]1CC[C@@]2(C)C(=CC[C@@H]3[C@@H]2CC[C@]2(C)c4c(cc(C#N)c(=N)n4C(C)=O)C[C@@H]32)C1" here.
Outgoing: 39.6 µM

Incoming: Please give the documented TGI of "CC(=O)NNC(=S)/N=C/c1c(O)cc(C)oc1=O"
Outgoing: > 100 µM

Incoming: State its TGI for this compound: "ClC1(c2ccccc2)c2ccc(Br)cc2-c2cc(Br)ccc21"
Outgoing: 34.3 µM

Incoming: Find the measured TGI of CC1=C(C(=O)NCC(C)O)CC(C(=O)NCC(C)O)=C(C)N1 (stereo not drawn) and report it.
Outgoing: > 100 µM

Incoming: For the compound CCC1CCCCN1C(=S)N/N=C(\C)c1ccccn1 (stereo not drawn) , give its reported TGI.
Outgoing: 6.26 µM

Incoming: Note down TGI recorded for "COC(OC)(c1ccccc1)C(I)I"
Outgoing: > 59.7 µM

Incoming: Indicate the recorded TGI value for this compound: N#C/C(=C/C=C/c1ccccc1)S(=O)c1ccccc1 (stereo not drawn)
Outgoing: 13.7 µM

Incoming: Tell us which TGI value is on record for "CCn1c(-c2ccc(C)cc2)cs/c1=N\C(P(=O)(O)O)P(=O)(O)O"
Outgoing: > 100 µM

Incoming: Output TGI of COc1ccc(C2SCC(=O)N2NC(=O)C(C)Oc2ccccc2Cl)cc1 (stereo not drawn)
Outgoing: > 100 µM

Incoming: Provide only the value of recorded TGI for "Cn1c2ccccc2n2c(=O)c3cccnc3c(C#N)c12"
Outgoing: > 100 µM

Incoming: Output TGI of "Nc1nc(N)c2nnn(C[C@H]3CC[C@@H](CO)C3)c2n1"
Outgoing: > 100 µM

Incoming: Identify measured TGI corresponding to "C[C@@H](Oc1cc(NS(=O)(=O)N2CCC2)nc(SCc2cccc(F)c2F)n1)[C@@H](O)CO"
Outgoing: > 100 µM
